Reported pIC50 by item:
# Test system: vCap Cell
# methodNotes: vCap cell growth inhibition, CellTiter-Glo, 72 h
# Type: cell-based
# conditionSummary: Homo sapiens, VCaP, 72 h, vCap cells, 72 h culture
pIC50: −log10 of the molar value.

Example results:
{"columns": ["molecule", "studySystem", "pIC50"],
 "data": [
  ["CC(=O)N1Cc2cc(C3CCC([S+](C)[O-])CC3)cc(N3CCCc4cc(-c5cnn(C)c5)c(C(F)F)cc43)c2C1 (stereo not drawn) [Compound M001323]", "vCap Cell", "> 6.00"],
  ["CC(=O)N1Cc2cc(C3CCN(C4COC4)CC3)cc(N3CCCc4cc(-c5cnn(C)c5)c(C(F)F)cc43)c2C1 [Compound M001056]", "vCap Cell", "< 6.00"]
]}

--- query ---
Challenge: For CC(=O)N1Cc2cc(C3CCC(=O)NC3)cc(N3CCCc4cc(-c5cnn(C)c5)c(C(F)F)cc43)c2C1 (stereo not drawn) [Compound M001174] , what is its reported pIC50?
Response given: > 6.00

* * *

# Tested on: vCap Cell
# methodNotes: vCap cell growth inhibition, CellTiter-Glo, 72 h
# Format: cell-based
# conditionSummary: Homo sapiens, VCaP, 72 h, vCap cells, 72 h culture
# Protocol: 22RV1 or vCap cells were cultured in RPMI-1640 medium (10% fetal bovine serum and 100 units (per mL) of penicillin/streptomycin dual antibody were added to RPMI-1640) in a 37° C., 5% CO2 cell incubator. […] The plate was let stand at room temperature for 10 min, and fluorescence signal values were read using a microplate reader. Data were analyzed using Prism 7.0 and graphs were generated. […]
pIC50: −log10 of the molar value.
quantityKind: pIC50

Study these solved cases before continuing.
{"columns": ["molecule", "studySystem", "pIC50"],
 "data": [
  ["CNC(=O)N1CCc2cc(C3CCC(OC)CC3)cc(N3CCCc4cc(-c5cnn(C)c5)c(C(F)F)cc43)c2C1 (stereo not shown)", "vCap Cell", "< 6.00"],
  ["CON[C@H]1CC[C@@H](c2cc3c(c(N4CCCc5cc(-c6cnn(C)c6)c(C(F)F)cc54)c2)CN(C(C)=O)C3)CC1", "vCap Cell", "< 6.00"],
  ["CNC(=O)N1Cc2cc(C3CC4CCC(C3)N4C)cc(N3CCCc4cc(-c5cnn(C)c5)c(C(F)F)cc43)c2C1 (stereo not shown)", "vCap Cell", "< 6.00"],
  ["CNC(=O)N1CCc2cc(C3CCN(CC(C)(C)O)C(=O)C3)cc(N3CCCc4cc(-c5cnn(C)c5)c(C(F)F)cc43)c2C1 (stereo not shown)", "vCap Cell", "< 6.00"],
  ["CNC(=O)N1CCc2cc(C3CCN(OC)CC3)cc(N3CCCc4cc(-c5cnn(C)c5)c(C(F)F)cc43)c2C1", "vCap Cell", "> 6.00"]
]}

Challenge: Tell me the measured pIC50 of CC(=O)N1Cc2cc(C3CCC([S@](C)(=N)=O)CC3)cc(N3CCCc4cc(-c5cnn(C)c5)c(C(F)F)cc43)c2C1 (stereo in doubt) , please.
Response given: < 6.00

Challenge: Can you share its pIC50? I mean this molecule: CC(=O)N1Cc2cc(N3CCNCC3)cc(N3CCCc4cc(-c5cnn(C)c5)c(C(F)F)cc43)c2C1
Response given: < 6.00

* * *

# Test system: vCap Cell
# methodNotes: vCap cell growth inhibition, CellTiter-Glo, 72 h
# Type: cell-based
# conditionSummary: Homo sapiens, VCaP, 72 h, vCap cells, 72 h culture
pIC50: −log10 of the molar value.
quantityKind: pIC50

{"columns": ["compound", "pIC50"],
 "data": [
  ["CNC(=O)N1CCCc2cccc(N3CCCc4cc(-c5cnn(C)c5)c(C(F)F)cc43)c2C1 [Compound M001211]", "< 6.00"],
  ["CC(=O)N1Cc2cc(C3CCOCC3)cc(N3CCCc4cc(-c5cnn(C)c5)c(C(F)F)cc43)c2C1 [Compound M001067]", "> 6.00"],
  ["CN1Cc2c(cc(C3CCNCC3)cc2N2CCCc3cc(-c4cnn(C)c4)c(C(F)F)cc32)CC1=O [Compound M001027]", "< 6.00"],
  ["CNC(=O)N1Cc2cc(C3CC4CCC(C3)N4C(=O)OC)cc(N3CCCc4cc(-c5cnn(C)c5)c(C(F)F)cc43)c2C1 (stereo not drawn) [Compound M001137]", "< 6.00"],
  ["CCN1CC(c2cc3c(c(N4CCCc5cc(-c6cnn(C)c6)c(C(F)F)cc54)c2)CN(C(=O)NC)CC3)CCC1=O (stereo not drawn) [Compound M001221]", "> 6.00"]
]}

Challenge: Could you tell me which pIC50 is on file for CCN1CCC(c2cc3c(c(N4CCCc5cc(-c6cnn(C)c6)c(C(F)F)cc54)c2)CN(C(C)=O)CCC3)CC1=O (stereo not drawn) [Compound M001264] ?
Response given: < 6.00

Challenge: Returns the measured pIC50 for the input compound. Input: CC(=O)N1Cc2cc([C@H]3CC[C@@H](O)CC3)cc(N3CCCc4cc(-c5cnn(C)c5)c(C(F)F)cc43)c2C1 [Compound M001195]
Response given: > 6.00

Challenge: Could you tell me which pIC50 is on file for CNC(=O)N1CCc2cc(C3CCN(C(C)=O)CC3)cc(N3CCCc4cc(-c5cnn(C)c5)c(C(F)F)cc43)c2C1 [Compound M001068] ?
Response given: > 6.00

Challenge: Could you tell me which pIC50 is on file for CC(=O)N[C@H]1CC[C@H](c2cc3c(c(N4CCCc5cc(-c6cnn(C)c6)c(C(F)F)cc54)c2)CN(C(C)=O)C3)CC1 [Compound M001304] ?
Response given: > 6.00

Challenge: # input compound: CNC(=O)N1Cc2cc(C3CCN(C)CC3)cc(N3CCCc4cc(-c5cnn(C)c5)c(C(F)F)cc43)c2C1 [Compound M001043] ; wanted: its pIC50
Response given: < 6.00

Challenge: Look at this compound and give its reported pIC50. CON[C@H]1CC[C@H](c2cc3c(c(N4CCCc5cc(-c6cnn(C)c6)c(C(F)F)cc54)c2)CN(C(C)=O)C3)CC1 [Compound M001341]
Response given: < 6.00

Challenge: For CNC(=O)N1CCc2cc(C3CCNCC3)cc(N3CCCc4cc(-c5cnn(C)c5)c(C(F)F)cc43)c2C1 [Compound M001017] , what is its reported pIC50?
Response given: < 6.00

Challenge: Consider the compound shown here: CNC(=O)N1CCc2cc(C3CCOCC3)cc(N3CCCc4cc(-c5cnn(C)c5)c(C(F)F)cc43)c2C1 [Compound M001184] What is its recorded pIC50?
Response given: > 6.00

* * *

# System: vCap Cell
# methodNotes: vCap cell growth inhibition, CellTiter-Glo, 72 h
# Type: cell-based
# conditionSummary: Homo sapiens, VCaP, 72 h, vCap cells, 72 h culture
# Procedure: 22RV1 or vCap cells were cultured in RPMI-1640 medium (10% fetal bovine serum and 100 units (per mL) of penicillin/streptomycin dual antibody were added to RPMI-1640) in a 37° C., 5% CO2 cell incubator. […] The plate was let stand at room temperature for 10 min, and fluorescence signal values were read using a microplate reader. Data were analyzed using Prism 7.0 and graphs were generated. […]
pIC50: −log10 of the molar value.
Recorded pIC50 for the following molecules

For orientation, consider the following solved cases.
{"columns": ["molecule", "quantityKind", "valueMeasured"],
 "data": [
  ["CNC(=O)N1Cc2cc(C3CC4CCC(C3)N4C(C)=O)cc(N3CCCc4cc(-c5cnn(C)c5)c(C(F)F)cc43)c2C1 (stereo not drawn) [Compound M001095]", "pIC50", "< 6.00"],
  ["CNC(=O)N1Cc2cc(-c3ccc(OC)cc3)cc(N3CCCc4cc(-c5cnn(C)c5)c(C(F)F)cc43)c2C1 [Compound M001121]", "pIC50", "< 6.00"],
  ["CNC(=O)N1Cc2cc(C3CCNC(=O)C3)cc(N3CCCc4cc(-c5cnn(C)c5)c(C(F)F)cc43)c2C1 (stereo not drawn) [Compound M001118]", "pIC50", "< 6.00"]
]}

Challenge: Any idea what its pIC50 is? The molecule is CC(=O)N1Cc2cc(C3CCN(C4CCC(=O)NC4=O)C(=O)C3)cc(N3CCCc4cc(-c5cnn(C)c5)c(C(F)F)cc43)c2C1 (stereo not drawn) [Compound M001288]
Response given: < 6.00

Challenge: Sample CNC(=O)N1CCc2cc(C3CCN(S(=O)(=O)C4CC4)CC3)cc(N3CCCc4cc(-c5cnn(C)c5)c(C(F)F)cc43)c2C1 [Compound M001307] — what was its pIC50?
Response given: > 6.00

Challenge: // query pIC50 value for entry CNC(=O)N1CCc2nc(C3CCOCC3)nc(N3CCCc4cc(-c5cnn(C)c5)c(C(F)F)cc43)c2C1 [Compound M001245]
Response given: < 6.00
